Catalogue of growth readings, one per entry.
# Tested on: NCI-H226 lung
# assay-explanation: NCI-60 one-dose screen, 48 h (100 = growth as untreated, 0 = no growth, -100 = all killed)
# measurement-setup: 10 µM unless noted
Compounds without any hit were thinned out: in the full panel of roughly 83,000, 20% have a hit. Activity calls are given as the source filed them. The calls were made as follows: active = growth percent below 10; inactive = the rest.
assay-endpoint: growth

- CN(N)c1nc2sc3c(c2c(=O)[nH]1)CCCC3: 101% (inactive)
- N#CC1(C#N)C(c2cccs2)NC(c2cccs2)C1(C#N)C#N (stereo not given): 102% (inactive)
- Cc1sc2c(c1C)c(=O)nc1c(-c3nc4ccccc4s3)n[nH]n12: 87.4% (inactive)
- CC(=O)NCC(=O)N1[C@@H]2CC[C@H]1c1ccc(Nc3ncc(C(F)(F)F)c(NC4CCC4)n3)cc12: 42.8% [2.5 µM] (inactive)
- CCOC(=O)C1=C(C)N=C2Sc3cccc(OC)c3N2[C@H]1c1ccccn1: 84.9% (inactive)
- Nc1ncnc2c1ccn2-c1cccc(NC(=O)c2ccc(N3CCOCC3)c(C(F)(F)F)c2)c1: 60% (inactive)
- Cc1ccc(Nc2nccc(N(C)c3ccc4c(C)n(C)nc4c3)n2)cc1S(N)(=O)=O: 27.5% (inactive)
- COc1cccc(NC(=O)Nc2ccc(Nc3ncnc4sc5c(c34)CCN(C(=O)CCl)C5)cc2)c1: 88.9% (inactive)
- Cc1cccc(Cl)c1NC(=O)c1cnc(Nc2cc(N3CCOCC3)cc(S(C)(=O)=O)c2)s1: 66% (inactive)
- COc1cc2c3c(c1)nc(C)n3CCC2: 91.1% (inactive)

---

# Test system: UACC-62 melanoma
# assay-explanation: NCI-60 one-dose screen, 48 h (100 = growth as untreated, 0 = no growth, -100 = all killed)
# measurement-setup: 10 µM unless noted
# Protocol: Growth inhibition of the UACC-62 human tumor cell line is measured as a screen for anti-cancer activity. Cells are grown in 96 well plates and exposed to the test compound for 48 hours. Compounds are tested at a single concentration, which is 10^-5 M for most compounds. The reported endpoint is percent growth (GI% or GIPRCNT), where numbers from 0 - 100% represent growth inhibition, and numbers from -100% - 0 represent cell death. For example, a value of 40 represents 60% growth inhibition. […]
About 83,000 compounds went through this panel and 20% of them were active in at least one assay; those are over-represented in the sample as a whole.
Below: a set of entries, each annotated with reported growth.
assay-endpoint: growth (%)

* O=C(Nc1ccc(N=Nc2ccccc2)cc1)c1cccc2ccccc12 | 34.6
* COc1cc(N2CCC(N(C)C)CC2)ccc1Nc1ncc(Cl)c(Nc2ccccc2P(C)(C)=O)n1 | 16
* C[C@@H](Nc1cc(F)cc(F)c1)c1cc(C(=O)N(C)C)cc2c(=O)cc(N3CCOCC3)oc12 | 11.3
* COC(=O)CCCNc1c(-c2c(O)c(O)cc3c(O)c(-c4c(C)cc5c(-c6nc7ccccn7c6NCCCC(=O)OC)c(O)c(O)cc5c4O)c(C)cc23)nc2ccccn12 | 41.4
* CCCCCCCC(=O)SCC/C=C/[C@@H]1CC(=O)NCc2cccc(n2)C2=N[C@@](C)(CS2)C(=O)N[C@@H](C(C)C)C(=O)O1 | -64.1
* CCN(CCO)CCCOc1ccc2c(Nc3cc(CC(=O)Nc4cccc(F)c4)[nH]n3)ncnc2c1 | -4.86
* COc1ccc(-c2nocc2-c2cc(OC)c(OC)c(OC)c2)cc1 | 13
* CC(C)(C)c1ccc(Cn2cc(CSc3nc4ccccc4s3)nn2)cc1 | 88.4
* COC1CCC(N2C(=O)CNc3ncc(-c4ccc(C(C)(C)O)nc4)nc32)CC1 (centres undefined) | -21
* CCN(CC)CCCC(C)Nc1cc(-c2ccc(C(F)(F)F)cc2)c(C#N)c2nc3ccccc3n12 (centres undefined) | -67.3
* O=C(CNc1nc(-c2ccc(Cl)cc2)cs1)Nc1ccc(-c2nc3ccccc3s2)cc1 | 91.9
* O=C(c1ccccc1)C(c1ccccc1)N1CCOCC1 (centres undefined) | 105
* CC[C@H](CO)Nc1nc(NCc2ccccc2)c2ncn(C(C)C)c2n1 | 46.8
* C[C@]12O[C@H](C[C@]1(O)CO)n1c3ccccc3c3c4c(c5c6ccccc6n2c5c31)CNC4=O | -49.9
* CC1(O)CC(c2nc(-c3ccc4ccc(-c5ccccc5)nc4c3)c3c(N)nccn23)C1 (centres undefined) | 39.9
* C#Cc1cccc(Nc2ncnc3cc(OC)c(OCCCCCCC(=O)NO)cc23)c1 | -78.3
* O=C1NC(=O)[C@@H](c2cn3c4c(cccc24)CCC3)[C@@H]1c1c[nH]c2ccccc12 | 33.9
* COc1ccc2c(CCCC(c3ccccc3)c3ccccc3)c3[n+](cc2c1OC)CCc1cc2c(cc1-3)OCO2 | -71.7
* NC(=O)Nc1cc(-c2cccc(F)c2)sc1C(=O)N[C@H]1CCCNC1 | -21.1

The measurements presented in this section are drawn from PubChem BioAssay (NCI).
